// provenance: PubChem BioAssay AID248

# Test system: L1210 leukemia ip in BDF1 mice, survival T/C
# ASSAY_EXPLANATION: NCI In Vivo Anticancer Drug Screen. Data for tumor model L1210 Leukemia (intraperitoneal) in B6D2F1 (BDF1) mice
# CONDITION_SET: endpoint: mean survival time; dose: 100.0 mg/kg/injection; schedule: Q01DX009 (ip); vehicle: Klucel (hydroxypropylcellulose) (HPC); higher = longer survival
Toxic doses and inconclusive results are not listed.
Attribute: T/C

Solved entries (count: 5):
CCN(CC)CCN(C(=S)Nc1ccccc1)c1ccccc1 | 96 % of control
Clc1cc(Cl)c2nc(Cl)c3ccccc3c2c1 | 100 % of control
CCC1C(CC(=O)O)=C(C)NC(C)=C1CC(=O)O | 109 % of control
CCOC(=O)NC(CC)c1ccc2oc3ccccc3c2c1 (stereo unspecified) | 90 % of control
O=[N+]([O-])c1ccccc1N=N/C(Cc1ccccc1)=N\Nc1ccccc1 | 92 % of control

Next compound, T/C to be filled in.
(Q) Which T/C value belongs to O=S(=O)(Nc1c(Cl)c(Cl)c(Cl)c(Cl)c1NS(=O)(=O)c1ccccc1)c1ccccc1 ?
(A) 101 % of control
